These data points were gathered from the RNAGym collection of RNA variant scans (doi:10.1073/pnas.2313332121).

B1: TPR t1 (parent)
chain: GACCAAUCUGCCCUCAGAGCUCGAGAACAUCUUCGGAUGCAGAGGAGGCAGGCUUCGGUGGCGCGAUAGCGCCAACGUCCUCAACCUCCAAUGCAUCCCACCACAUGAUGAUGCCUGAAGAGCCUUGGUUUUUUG

Variants of: B1
Experiment: polymerase ribozyme fitness, log enrichment relative to wild type (log ratio); higher = more active; in vitro selection for triplet polymerase activity
Each record gets a class by polymerase ribozyme fitness (log ratio): low class (below -5), middle class (-5 to below -3), high class (-3 or more)

1) G48U A118G U125G; high class
2) A43C G47U; middle class
3) A18U U59A A68G A91U G120U; low class
4) G17C C49A C82U C114U; low class
5) C8A C12G G39C G63C U78G G117U; high class
6) G36A G52A G63U; middle class
7) C89G C104U A121U; high class
8) C11U C97A; middle class
9) C62U G128C U133C; high class
